Entry source: PubChem BioAssay (NCI)

assay: NCI Yeast Anticancer Drug Screen. Data for the mlh1 strain (AID 171);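 further: 0% = growth of vehicle-treated control cultures of the same strain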; conditions: S. cerevisiae mlh1 strain growth inhibition; at 33.0 µM; hits give high values
This is part of a sample that, as a whole, favours compounds with a hit. Of some 79,000 tested, about 15% had one in any assay.
Property name: growth inhibition (%)
Numbers only, in %.

Guide cases for growth inhibition, answers given:
CCCCCCCCCCCCCCCCP(=O)(O)OP(=O)(O)OCC1OC(n2ccc(N)nc2=O)C(O)C1O (stereo not given): -4
O=Cc1ccc(C(F)(F)F)cc1.[C-]#[O+].[C-]#[O+].[C-]#[O+].[Cr]: 8
CC1CCC2(NC1)OC1CC3C4CCC5CC(OC6OC(CO)C(OC7OC(CO)C(O)C(OC8OCC(O)C(O)C8O)C7OC7OC(CO)C(O)C(O)C7O)C(O)C6O)CCC5(C)C4CCC3(C)C1C2C (stereo not given): -12

// for each compound in input: emit growth inhibition
1. CCCN(CCC)c1c([N+](=O)[O-])cc(S(N)(=O)=O)cc1[N+](=O)[O-]
2. COc1cc(O)c2c(O)c3c(c4c2c1[C@]1(C4)C(C)=CCCC1(C)C)[C@H](O)[C@@]1(O)CC(=O)C(C(N)=O)=C(O)[C@@]1(O)C3=O
3. O=C(O)C1C2CCC(C2)C1c1ccccc1 (stereo not given)
4. C/C(=N\NC(N)=O)C(CN1CCOCC1)C(c1ccccc1)c1c(O)c2ccccc2oc1=O (stereo not given)
5. CC(C)(C)c1cc([N+](=O)[O-])cc([N+](=O)[O-])c1O
6. CCOC(=O)C1=C(C(=O)OCC)C2(c3ccccc3)N(O1)c1ccccc1C2(C)C (stereo not given)
7. OC1(c2ccccc2)CC2CCC(C1)N2CCCC(O)(c1ccccc1)c1ccccc1 (stereo not given)

Reply:
1. 31
2. 97
3. -2
4. -3
5. 10
6. -3
7. 23
